meta.source: patent EP4029501A1

- System: muscle progenitors derived from DMD hiPSC
- assayInfo: Myotube assay: total myotube area per well (alpha-actinin staining)
- Type: cell-based, human
- details: Homo sapiens, Myotube, comparative compounds, same assay as Table 3; NA: non active

{"columns": ["compound", "EC50"],
 "data": [
  ["CC(C)(C)c1cc(NC(=O)Nc2ccc(Oc3ccnc4[nH]c(=O)cnc34)cc2F)n(-c2ccccc2)n1 [CCT196969, reference compound]", "0.5 to 1 µM"],
  ["CNC(=O)c1cc(Oc2ccc(NC(=O)Nc3cc(C(C)(C)C)nn3-c3ccc4ncccc4c3)c(F)c2)ccn1 [Rebastinib, reference compound]", "1 to 5 µM"],
  ["CNC(=O)c1cc(Oc2ccc(NC(=O)Nc3ccc(Cl)c(C(F)(F)F)c3)cc2)ccn1", "≥ 5 µM"],
  ["Cc1ccc(-n2nc(C(C)(C)C)cc2NC(=O)Nc2ccc(OCCN3CCOCC3)c3ccccc23)cc1", "≥ 5 µM"]
]}

----------
Items are presented alongside their recorded EC50.
- System: muscle progenitors derived from DMD hiPSC
- assayInfo: Myotube assay: total myotube area per well (alpha-actinin staining)
- Format: cell-based, human
- details: Homo sapiens, Myotube, 72 h, myogenic activity, half-maximal generation of myotubes; 10 points dose-response 1.5 nM to 30 µM; 3 days; DMD or WT cell source not given
assayEndpoint: EC50

{"columns": ["compound", "targetDesc", "measuredResult"],
 "data": [
  ["CCOC(=O)Nc1cc(Oc2ccc(NC(=O)Nc3ncc(C(C)(C)C)s3)c(SC)c2)ccn1 [(df)]", "muscle progenitors derived from DMD hiPSC", "< 0.5 µM"],
  ["CSc1cc(Oc2ccnc3[nH]c(=O)cnc23)ccc1NC(=O)Nc1cc(C(C)(C)C)nn1C1CCCCC1 [(bn)]", "muscle progenitors derived from DMD hiPSC", "≥ 5 µM"],
  ["CC(C)(C)c1cc(NC(=O)Nc2ccc(Oc3ccnc4[nH]c(=O)cnc34)nc2)n(-c2ccccc2)n1 [(t)]", "muscle progenitors derived from DMD hiPSC", "< 0.5 µM"],
  ["CSc1cc(Oc2ccnc(C(=O)Nc3ccccc3)c2)ccc1NC(=O)Nc1cc(C(C)(C)C)nn1-c1ccccc1 [(co)]", "muscle progenitors derived from DMD hiPSC", "≥ 5 µM"],
  ["CC(C)(C)c1cnc(NC(=O)Nc2ccc(Oc3ccnc4[nH]c(=O)cnc34)c3ccccc23)s1 [(ba)]", "muscle progenitors derived from DMD hiPSC", "< 0.5 µM"],
  ["CSc1cc(Oc2ccnc3[nH]c(=O)cnc23)ccc1NC(=O)Nc1cc(C(C)(C)C)nn1-c1ccc(C)nc1 [(bd)]", "muscle progenitors derived from DMD hiPSC", "< 0.5 µM"],
  ["CSc1cc(Oc2ccnc3[nH]c(=O)cnc23)ccc1NC(=O)Nc1cc(C(C)(C)C)on1 [(dh)]", "muscle progenitors derived from DMD hiPSC", "1 to 5 µM"],
  ["CC(C)(C)c1cc(NC(=O)Nc2ccc(Oc3ccnc4[nH]c(=O)cnc34)cn2)n(-c2ccccc2)n1 [(u)]", "muscle progenitors derived from DMD hiPSC", "1 to 5 µM"]
]}

----------
Items are presented alongside their recorded EC50.
- Tested on: muscle progenitors derived from DMD hiPSC
- assayInfo: Myotube assay: total myotube area per well (alpha-actinin staining)
- Assay type: cell-based, human
- details: Homo sapiens, Myotube, 72 h, myogenic activity, half-maximal generation of myotubes; 10 points dose-response 1.5 nM to 30 µM; 3 days; DMD or WT cell source not given
Where a name gives a salt, the structure may show the parent alone.

{"columns": ["compound", "EC50"],
 "data": [
  ["O=C(Nc1ccc(Oc2ccnc3[nH]c(=O)cnc23)cc1F)Nc1c2c(nn1-c1ccccc1)CCC2 [(x)]", "≥ 5000 nM"],
  ["CC(C)(C)c1cc(NC(=O)Nc2ccc(Oc3ccnc4[nH]c(=O)cnc34)cc2)n(-c2ccccc2)n1 [(s)]", "500 to 1000 nM"],
  ["CC(C)(C)c1cc(NC(=O)Nc2ccc(C(=O)c3ccncc3)cc2)n(-c2ccccc2)n1 [(cs)]", "≥ 5000 nM"],
  ["CSc1cc(Oc2ccnc3[nH]c(=O)cnc23)ccc1NC(=O)Nc1cc(C(C)(C)C)no1 [(bx)]", "500 to 1000 nM"],
  ["CSc1cc(Oc2ccnc3[nH]c(=O)cnc23)ccc1NC(=O)Nc1cc(C(C)(C)C)nn1-c1cccc(Cl)c1 [(as)]", "< 500 nM"],
  ["CSc1cc(Oc2ccnc(NCCN(C)C)c2)ccc1NC(=O)Nc1cc(C(C)(C)C)nn1-c1ccccc1 [(ck), hydrochloride]", "500 to 1000 nM"],
  ["CC(C)(C)c1cc(NC(=O)Nc2ccc(Oc3ccncc3)cc2)n(-c2ccccc2)n1 [(bl)]", "500 to 1000 nM"],
  ["CNC(=O)c1cc(Oc2ccc(NC(=O)Nc3cc(C(C)(C)C)nn3-c3ccccc3)c(SC)c2)ccn1 [(br)]", "≥ 5000 nM"]
]}
